Assay system: G-Flamp1 (cpGFP inserted into mlCNBD of the MlotiK1 channel) (Mesorhizobium japonicum, UniProt Q98GN8, P285N/S308V)
Construct: GFP D173G plus Citrine/sfGFP mutations) inserted between residues 285 and 286; N-terminal RSET 6xHis tag kept for Kd; tag-free (SUMO cut) for crystal; E. coli; monomer
Sequence (Q98GN8 213-355 P285N/S308V): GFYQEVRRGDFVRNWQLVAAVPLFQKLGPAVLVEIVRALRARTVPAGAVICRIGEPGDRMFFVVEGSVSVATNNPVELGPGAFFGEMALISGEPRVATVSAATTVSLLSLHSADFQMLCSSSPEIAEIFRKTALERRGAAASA
Assay info: fluorescence titration of purified sensor (ex […] nm), sigmoidal fit
Observation type: pKd
pKd (log units): -log10 of the concentration in mol/L.

Find the recorded pKd belonging to Nc1nc2c(ncn2[C@@H]2O[C@@H]3COP(=O)(O)O[C@H]3[C@H]2O)c(=O)[nH]1 [cGMP] and report it. 4.52

// data source = paper PMC9468011
